Cited source: ChEMBL document CHEMBL1123508

Measured dose excreted by item
- assay comment: The amount of unchanged compound in urine collected at 0-72 h after treatment
- condition details: rat
Numeric answer only, unit % assumed.

Examples from the recorded data:
{"molecule": "Cn1c([N+](=O)[O-])cnc1/C=C(\\Oc1ccccc1)C(=O)O", "dose excreted, %": 21.7}
{"molecule": "CCN(CC)CCOCCn1c([N+](=O)[O-])cnc1C", "dose excreted, %": 28.5}

[Q] # lookup: dose excreted of Nc1ncc(S(=O)(=O)c2ccc([N+](=O)[O-])cc2)s1
[A] 64.7

[Q] # lookup: dose excreted of Cc1ncc([N+](=O)[O-])n1CC(O)CO (stereo not drawn)
[A] 66.4

[Q] # lookup: dose excreted of CC(C)c1ncc([N+](=O)[O-])n1C [IPRONIDAZOLE]
[A] 9.1

[Q] # lookup: dose excreted of COC(=S)NCCn1c([N+](=O)[O-])cnc1C [CARNIDAZOLE]
[A] 23.1

[Q] # lookup: dose excreted of O=C1NCCN1c1ncc([N+](=O)[O-])s1 [NIRIDAZOLE]
[A] 7.3

[Q] # lookup: dose excreted of O=[N+]([O-])c1c[nH]cn1
[A] 46.1

[Q] # lookup: dose excreted of O=[N+]([O-])c1cncn1CCN1CCOCC1 [NIMORAZOLE]
[A] 52.4

[Q] # lookup: dose excreted of CCS(=O)(=O)CCn1c([N+](=O)[O-])cnc1C [TINIDAZOLE]
[A] 66.3

----------
- assay comment: in vivo
- condition details: rat, urine
- Description: The amount of the unchanged form of compound detected in the urine samples collected at 0-18 hr after the treatment by HPLC technique; No data
endpoint: dose excreted (%)
Numeric answer only, unit % assumed.

[Q] # lookup: dose excreted of Cc1ncc([N+](=O)[O-])n1CC(O)Cn1c([N+](=O)[O-])cnc1C
[A] 15.7

----------
Measured Log BR by item
- Test system: Rattus norvegicus
- assay comment: The total 72 hr urinary excretion of unchanged compound reported as log (percent X 10) of the administered dose
- condition details: in vivo
Just the number.

{"compound": "CCN(CC)CCOCCn1c([N+](=O)[O-])cnc1C", "Log BR": 2.455}
{"compound": "O=[N+]([O-])c1cnc(/C=C/c2ccc3c(c2)OCO3)n1CCO", "Log BR": 1.529}
{"compound": "Nc1ncc(S(=O)(=O)c2ccc([N+](=O)[O-])cc2)s1", "Log BR": 2.811}
{"compound": "O=[N+]([O-])c1cncn1CCN1CCOCC1 [NIMORAZOLE]", "Log BR": 2.719}
{"compound": "CCS(=O)(=O)CCn1c([N+](=O)[O-])cnc1C [TINIDAZOLE]", "Log BR": 2.822}
{"compound": "Cc1ncc([N+](=O)[O-])n1CCS(C)(=O)=O", "Log BR": 2.448}

Alright, here's another compound for you.
[Q] Hello, I am looking for reported Log BR with Rattus norvegicus for CCC(CC)C(O)Cn1c([N+](=O)[O-])cnc1C (stereo unspecified) . Could you help?
[A] 2.713

----------
- Test system: Rattus norvegicus
- assay comment: The total 54 h urinary excretion of unchanged compound reported as log (percent X 10) of the administered dose
- condition details: in vivo
Returns one of condition met or condition not met; condition met when Log BR is >= 2.

{"molecule": "Cn1c([N+](=O)[O-])cnc1CO", "label class": "condition met"}

[Q] Given Cn1c([N+](=O)[O-])cnc1/C=C(\Oc1ccccc1)C(=O)O , state whether its Log BR is at least 2.
[A] condition met

[Q] Given Cn1c([N+](=O)[O-])cnc1C=O , state whether its Log BR is at least 2.
[A] condition met

[Q] Given O=C1NCCN1c1ncc([N+](=O)[O-])s1 [NIRIDAZOLE] , state whether its Log BR is at least 2.
[A] condition not met

[Q] Given Cn1c([N+](=O)[O-])cnc1C1CC1 , state whether its Log BR is at least 2.
[A] condition met

[Q] Given Cc1ncc([N+](=O)[O-])n1CC(O)CO (configuration not stated) , state whether its Log BR is at least 2.
[A] condition met

----------
Measured logP by item
- assay comment: Partition coefficient (logP)
- condition details: octanol/water
Just the number.

{"compound": "Cn1c([N+](=O)[O-])cnc1/C=C(\\Oc1ccccc1)C(=O)O", "logP": -1}
{"compound": "Nc1ncc(S(=O)(=O)c2ccc([N+](=O)[O-])cc2)s1", "logP": -0.43}
{"compound": "Cc1ncc([N+](=O)[O-])n1CC(=O)Nc1ncccn1", "logP": -0.3}
{"compound": "Cn1c([N+](=O)[O-])cnc1C=O", "logP": -0.69}
{"compound": "O=[N+]([O-])c1cnc(/C=C/c2ccc3c(c2)OCO3)n1CCO", "logP": 2.03}
{"compound": "CCC(CC)C(O)Cn1c([N+](=O)[O-])cnc1C (configuration not stated)", "logP": -0.08}

[Q] # lookup: logP of CC(C)c1ncc([N+](=O)[O-])n1C
[A] 1.06

[Q] # lookup: logP of Cn1c([N+](=O)[O-])cnc1/C=C/c1ccnc(N)n1
[A] 0.85

[Q] # lookup: logP of Cc1ncc([N+](=O)[O-])n1CCO
[A] -0.1

[Q] # lookup: logP of O=C1NCCN1c1ncc([N+](=O)[O-])s1
[A] 0.92

[Q] # lookup: logP of CN1CCN(Cc2ncc([N+](=O)[O-])n2C)CC1
[A] -0.33

[Q] # lookup: logP of Cn1c([N+](=O)[O-])cnc1CO
[A] -0.03

----------
Measured dose excreted by item
- assay comment: The amount of unchanged compound in urine collected at 0-54 hr after treatment
- condition details: rat
Numeric answer only, unit % assumed.

Examples from the recorded data:
{"compound": "Cn1c([N+](=O)[O-])cnc1C1CC1", "dose excreted (%)": 12.9}
{"compound": "COC(=S)NCCn1c([N+](=O)[O-])cnc1C", "dose excreted (%)": 23.1}

[Q] # lookup: dose excreted of Cc1ncc([N+](=O)[O-])n1CC(O)CO (stereo not drawn)
[A] 66.4

[Q] # lookup: dose excreted of O=[N+]([O-])c1c[nH]cn1
[A] 46.1

[Q] # lookup: dose excreted of O=[N+]([O-])c1cncn1CCN1CCOCC1
[A] 52.4

[Q] # lookup: dose excreted of CCS(=O)(=O)CCn1c([N+](=O)[O-])cnc1C
[A] 66.3

----------
Measured Log BR by item
- Tested on: Rattus norvegicus
- assay comment: The total 36 hr urinary excretion of unchanged compound reported as log (percent X 10) of the administered dose
- condition details: in vivo
Just the number.

Examples from the recorded data:
{"molecule": "Cc1ncc([N+](=O)[O-])n1CCS(C)(=O)=O", "Log BR": 2.446}
{"molecule": "O=[N+]([O-])c1cnc(/C=C/c2ccc3c(c2)OCO3)n1CCO", "Log BR": 1.529}
{"molecule": "Cn1c([N+](=O)[O-])cnc1/C=C/c1ccnc(N)n1", "Log BR": 2.202}
{"molecule": "Cc1ncc([N+](=O)[O-])n1CC(=O)Nc1ncccn1", "Log BR": 2.59}
{"molecule": "Nc1ncc(S(=O)(=O)c2ccc([N+](=O)[O-])cc2)s1", "Log BR": 2.811}
{"molecule": "CCS(=O)(=O)CCn1c([N+](=O)[O-])cnc1C", "Log BR": 2.822}
{"molecule": "O=[N+]([O-])c1cncn1CCN1CCOCC1", "Log BR": 2.719}
{"molecule": "Cc1ncc([N+](=O)[O-])n1CC(=O)N1CCN(C(=O)Cn2c([N+](=O)[O-])cnc2C)CC1", "Log BR": 2.27}
{"molecule": "CN1CCN(Cc2ncc([N+](=O)[O-])n2C)CC1", "Log BR": 2.658}
{"molecule": "Cn1c([N+](=O)[O-])cnc1/C=C(\\Oc1ccccc1)C(=O)O", "Log BR": 2.28}

[Q] Hello, I am looking for reported Log BR with Rattus norvegicus for CCN(CC)CCOCCn1c([N+](=O)[O-])cnc1C . Could you help?
[A] 2.455

[Q] Hello, I am looking for reported Log BR with Rattus norvegicus for O=[N+]([O-])c1c[nH]cn1 . Could you help?
[A] 2.601

[Q] Hello, I am looking for reported Log BR with Rattus norvegicus for O=C1NCCN1c1ncc([N+](=O)[O-])s1 . Could you help?
[A] 1.861

[Q] Hello, I am looking for reported Log BR with Rattus norvegicus for Cn1c([N+](=O)[O-])cnc1C1CC1 . Could you help?
[A] 2.113

[Q] Hello, I am looking for reported Log BR with Rattus norvegicus for Cn1c([N+](=O)[O-])cnc1C=O . Could you help?
[A] 2.477

[Q] Hello, I am looking for reported Log BR with Rattus norvegicus for CCC(CC)C(O)Cn1c([N+](=O)[O-])cnc1C (stereo not drawn) . Could you help?
[A] 2.713
